// reported competition rate for each item listed
# target: T1, human MSLN-FL-his protein (human, UniProt Q13421 296-580)
# T1 construct: made in HEK293E cells, purified on nickel column; also called hMSLN-FL-his; human MSLN full-length protein; not shown: His tag
# T1 sequence (Q13421 other isoform, or with tags, fused parts or gaps): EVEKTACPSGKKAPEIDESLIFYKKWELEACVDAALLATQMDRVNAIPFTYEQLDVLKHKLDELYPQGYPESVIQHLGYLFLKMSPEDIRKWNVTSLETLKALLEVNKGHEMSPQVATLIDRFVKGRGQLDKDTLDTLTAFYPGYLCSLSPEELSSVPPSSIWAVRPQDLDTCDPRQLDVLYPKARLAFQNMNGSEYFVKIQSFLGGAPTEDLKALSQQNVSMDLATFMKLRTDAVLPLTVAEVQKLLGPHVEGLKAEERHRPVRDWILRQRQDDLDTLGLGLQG
# assayExplanation: competitive ELISA; row F8-13.8; note: test concentration or dose not given here
Write the answer as a number in %, unit excluded.

# example entries with known answers
binder	competition rate, %
S009-F8-15.19 (antibody, human IgG1, kappa, V domains shown, human-murine chimeric antibody, human IgG1/kappa constant regions) VH: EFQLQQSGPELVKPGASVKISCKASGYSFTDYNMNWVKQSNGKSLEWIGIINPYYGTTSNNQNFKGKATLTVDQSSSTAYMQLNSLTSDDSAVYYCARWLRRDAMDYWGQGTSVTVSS VL: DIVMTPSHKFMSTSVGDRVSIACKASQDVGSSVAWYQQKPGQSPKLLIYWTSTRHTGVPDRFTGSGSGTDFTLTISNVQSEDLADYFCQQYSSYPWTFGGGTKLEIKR	24
S009-F8-12.13 (antibody, human IgG1, kappa, V domains shown, human-murine chimeric antibody, human IgG1/kappa constant regions) VH: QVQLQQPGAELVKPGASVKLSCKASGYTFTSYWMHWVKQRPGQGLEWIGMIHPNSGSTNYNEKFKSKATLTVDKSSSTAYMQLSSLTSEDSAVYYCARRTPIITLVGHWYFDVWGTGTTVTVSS VL: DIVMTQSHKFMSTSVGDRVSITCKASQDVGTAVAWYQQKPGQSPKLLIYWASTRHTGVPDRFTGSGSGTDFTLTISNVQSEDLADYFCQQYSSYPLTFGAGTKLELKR	51.1

Let us examine a further case.
IN: Item S009-F8-7.5 (antibody, human IgG1, kappa, V domains shown, human-murine chimeric antibody, human IgG1/kappa constant regions) VH: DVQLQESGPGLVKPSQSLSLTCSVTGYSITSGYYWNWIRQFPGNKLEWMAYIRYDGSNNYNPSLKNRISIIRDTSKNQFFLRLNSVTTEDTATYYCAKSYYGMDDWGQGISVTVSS VL: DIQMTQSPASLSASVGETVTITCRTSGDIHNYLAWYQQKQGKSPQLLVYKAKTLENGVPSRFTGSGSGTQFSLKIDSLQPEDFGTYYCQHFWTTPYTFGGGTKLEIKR has what recorded competition rate?
OUT: 3.15

Reference source: patent US20250250357A1
